Target: T1, recombinant Cad-11 EC1 human IgG1 fusion protein (R&D Systems Cat. No. 1790-CA-050) (human, UniProt P55287 54-617, limits assumed)
T1 construct: Bought protein; the catalogue product may hold more of the extracellular region; also called recombinant human Cad-11 EC1; recombinant human Cad-11 fusion protein; not shown: human IgG1 part of the bought fusion protein
T1 sequence: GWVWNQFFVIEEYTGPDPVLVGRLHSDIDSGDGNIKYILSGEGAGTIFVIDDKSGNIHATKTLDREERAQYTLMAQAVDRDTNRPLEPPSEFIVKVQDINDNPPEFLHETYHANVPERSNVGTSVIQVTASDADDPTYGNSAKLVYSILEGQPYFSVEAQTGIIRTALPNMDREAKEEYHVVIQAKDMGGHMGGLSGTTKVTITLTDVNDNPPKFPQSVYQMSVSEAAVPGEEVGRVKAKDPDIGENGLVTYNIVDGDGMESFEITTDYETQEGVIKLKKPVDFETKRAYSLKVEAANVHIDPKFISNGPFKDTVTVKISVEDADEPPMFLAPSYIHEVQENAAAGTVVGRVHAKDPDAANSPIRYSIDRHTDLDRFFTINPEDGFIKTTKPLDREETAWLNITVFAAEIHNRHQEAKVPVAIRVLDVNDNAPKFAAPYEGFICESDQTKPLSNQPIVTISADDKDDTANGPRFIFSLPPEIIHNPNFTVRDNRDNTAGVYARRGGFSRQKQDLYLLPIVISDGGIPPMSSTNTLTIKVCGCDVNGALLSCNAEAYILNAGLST
Experiment: competition ELISA on coated recombinant human Cad-11 EC1 fusion; competitor biotinylated SYN0012/H1M1 at 0.1 µg/ml
readout-type: relative IC50 (IC50 of the test antibody divided by that of SYN0012)

binder: humanized anti-Cad-11 antibody SDP091 (Vκ2/VH4) (antibody, IgG4, V domains shown, humanized IgG4 (S241P), kappa) VH: EVQLVQSGAEVKKPGASVKVSCKASGYSFTGYFMNWVRQAPGQGLEWIGRINPYTGDTFYNQKFKGRATITVDKSTSTAYMELSSLRSEDTAVYYCGRLGSRYWYFDVWGQGTTVTVSS VL: DVLMTQTPLSSPVTLGQPASISCRSSQSIIHSNGNTYLEWYLQKPGQSPQLLIYKVSNRFSGVPDRFSGSGSGTDFTLKISRVEAEDVGVYYCFQGSHVPWTFGQGTKLEIK
value: 0.57 ratio (column head prints µg/mL)
--
binder: humanized anti-Cad-11 antibody SDP021 (Vκ1/VH2) (antibody, IgG4, V domains shown, humanized IgG4 (S241P), kappa) VH: EVQLVQSGAEVKKPGASVKISCKASGYSFTGYFMNWVKQAPGQGLEWIGRINPYTGDTFYNQKFKGRATLTVDKSTSTAYMELSSLRSEDTAVYYCGRLGSRYWYFDVWGQGTTVTVSS VL: DVLMTQTPLSSPVTLGQPASISCRSSQSIIHSNGNTYLEWYLQKPGQSPQLLIYKVSNRFSGVPDRFTGSGSGTDFTLKISRVEAEDVGVYYCFQGSHVPWTFGQGTKLEIK
value: 0.67 ratio (column head prints µg/mL)
--
binder: humanized anti-Cad-11 antibody SDP131 (Vκ3/VH3) (antibody, IgG4, V domains shown, humanized IgG4 (S241P), kappa) VH: EVQLVQSGAEVKKPGASVKISCKASGYSFTGYFMNWVRQAPGQGLEWIGRINPYTGDTFYNQKFKGRATLTVDKSTSTAYMELSSLRSEDTAVYYCGRLGSRYWYFDVWGQGTTVTVSS VL: DVVMTQTPLSSPVTLGQPASISCRSSQSIIHSNGNTYLEWYLQKPGQSPQLLIYKVSNRFSGVPDRFSGSGSGTDFTLKISRVEAEDVGVYYCFQGSHVPWTFGQGTKLEIK
value: 0.55 ratio (column head prints µg/mL)
--
binder: humanized anti-Cad-11 antibody SDP101 (Vκ2/VH5) (antibody, IgG4, V domains shown, humanized IgG4 (S241P), kappa) VH: EVQLVQSGAEVKKPGASVKVSCKASGYSFTGYFMNWVRQAPGQGLEWIGRINPYTGDTFYNQKFKGRVTITVDKSTSTAYMELSSLRSEDTAVYYCGRLGSRYWYFDVWGQGTTVTVSS VL: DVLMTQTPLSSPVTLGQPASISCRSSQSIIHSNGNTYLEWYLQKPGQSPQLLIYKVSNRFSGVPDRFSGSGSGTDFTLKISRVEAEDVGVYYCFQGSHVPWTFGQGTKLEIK
value: 0.53 ratio (column head prints µg/mL)
--
binder: humanized anti-Cad-11 antibody SDP041 (Vκ1/VH4) (antibody, IgG4, V domains shown, humanized IgG4 (S241P), kappa) VH: EVQLVQSGAEVKKPGASVKVSCKASGYSFTGYFMNWVRQAPGQGLEWIGRINPYTGDTFYNQKFKGRATITVDKSTSTAYMELSSLRSEDTAVYYCGRLGSRYWYFDVWGQGTTVTVSS VL: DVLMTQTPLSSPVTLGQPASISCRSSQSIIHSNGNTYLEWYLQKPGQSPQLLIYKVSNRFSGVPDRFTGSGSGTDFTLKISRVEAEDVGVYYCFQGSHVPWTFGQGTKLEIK
value: 0.65 ratio (column head prints µg/mL)
--
binder: humanized anti-Cad-11 antibody SDP031 (Vκ1/VH3) (antibody, IgG4, V domains shown, humanized IgG4 (S241P), kappa) VH: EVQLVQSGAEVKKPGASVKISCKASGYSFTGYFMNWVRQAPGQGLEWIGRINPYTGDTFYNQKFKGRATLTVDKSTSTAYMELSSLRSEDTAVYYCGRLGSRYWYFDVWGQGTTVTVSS VL: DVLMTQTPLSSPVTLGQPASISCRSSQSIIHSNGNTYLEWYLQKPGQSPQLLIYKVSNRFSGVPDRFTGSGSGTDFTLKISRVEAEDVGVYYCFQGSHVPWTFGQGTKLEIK
value: 0.84 ratio (column head prints µg/mL)
--
binder: humanized anti-Cad-11 antibody SDP071 (Vκ2/VH2) (antibody, IgG4, V domains shown, humanized IgG4 (S241P), kappa) VH: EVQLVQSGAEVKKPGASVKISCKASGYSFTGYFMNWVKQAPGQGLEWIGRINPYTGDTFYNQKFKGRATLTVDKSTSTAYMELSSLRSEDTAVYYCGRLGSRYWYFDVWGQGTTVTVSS VL: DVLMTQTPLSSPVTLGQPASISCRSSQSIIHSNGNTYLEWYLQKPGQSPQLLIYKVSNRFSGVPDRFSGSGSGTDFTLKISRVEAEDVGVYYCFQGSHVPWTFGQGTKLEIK
value: 0.33 ratio (column head prints µg/mL)
--
binder: humanized anti-Cad-11 antibody SDP011 (Vκ1/VH1) (antibody, IgG4, V domains shown, humanized IgG4 (S241P), kappa) VH: EVQLVQSGPELKKPGASVKISCKASGYSFTGYFMNWVKQAHGQGLEWIGRINPYTGDTFYNQKFKGRATLTVDKSSSTAYMELVSLSSEDSAVYYCGRLGSRYWYFDVWGQGTTVTVSS VL: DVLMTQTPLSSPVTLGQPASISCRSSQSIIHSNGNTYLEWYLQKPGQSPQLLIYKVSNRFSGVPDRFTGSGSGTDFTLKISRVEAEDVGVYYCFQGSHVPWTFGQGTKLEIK
value: 0.91 ratio (column head prints µg/mL)
--
binder: humanized anti-Cad-11 antibody SDP121 (Vκ3/VH2) (antibody, IgG4, V domains shown, humanized IgG4 (S241P), kappa) VH: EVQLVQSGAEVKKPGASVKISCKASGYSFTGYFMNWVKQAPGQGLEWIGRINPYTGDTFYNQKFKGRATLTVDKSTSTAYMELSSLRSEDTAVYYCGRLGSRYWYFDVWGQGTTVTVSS VL: DVVMTQTPLSSPVTLGQPASISCRSSQSIIHSNGNTYLEWYLQKPGQSPQLLIYKVSNRFSGVPDRFSGSGSGTDFTLKISRVEAEDVGVYYCFQGSHVPWTFGQGTKLEIK
value: 0.52 ratio (column head prints µg/mL)
--
binder: humanized anti-Cad-11 antibody SDP141 (Vκ3/VH4) (antibody, IgG4, V domains shown, humanized IgG4 (S241P), kappa) VH: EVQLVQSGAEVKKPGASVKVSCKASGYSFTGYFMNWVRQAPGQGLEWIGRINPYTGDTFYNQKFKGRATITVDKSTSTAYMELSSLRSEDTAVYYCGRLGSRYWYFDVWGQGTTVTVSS VL: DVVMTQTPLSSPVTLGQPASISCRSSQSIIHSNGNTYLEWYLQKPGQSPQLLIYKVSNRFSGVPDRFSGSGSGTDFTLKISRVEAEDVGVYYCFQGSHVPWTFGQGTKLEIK
value: 0.61 ratio (column head prints µg/mL)
